- Test system: GR-ST (B-Lymphoblastic Leukemia);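 further: after 72 h of two-drug dosing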
- assayDetails: Bliss excess, mean over the matrix (fraction); higher = more synergy
Please respond with reported Bliss excess for every item in the list.
Give bare numbers.

// known answers, use as guide
# compound, measuredEndpoint, observed
rows = [
    ("C[C@@H](Oc1cc(-c2cnn(C3CCNCC3)c2)cnc1N)c1c(Cl)ccc(F)c1Cl [Crizotinib] + CC1=C(C(=CC=C1)Cl)NC(=O)C2=CN=C(S2)NC3=CC(=NC(=N3)C)N4CCN(CC4)CCO [Dasatinib] (first compound max 10 µM, 7x7, partner max 2 µM)", "Bliss excess", 0.0129),
    ("COc1nnc2ccc(N3CCC(c4ccc(OCCN5CCN(C)C(=O)[C@H]5C)cc4)CC3)nn12 [AZD5153] + CC1(C)CCC(CN2CCN(c3ccc(C(=O)NS(=O)(=O)c4ccc(NCC5CCOCC5)c([N+](=O)[O-])c4)c(Oc4cnc5[nH]ccc5c4)c3)CC2)=C(c2ccc(Cl)cc2)C1 [Venetoclax] (first compound max 1 µM, 7x7, partner max 1 µM)", "Bliss excess", -0.0399),
]

# batch: return Bliss excess for each of the 5 compounds below
1. O=C(c1cc(Cc2n[nH]c(=O)c3ccccc23)ccc1F)N1CCN(C(=O)C2CC2)CC1 [Olaparib] + CC1(C)CCC(CN2CCN(c3ccc(C(=O)NS(=O)(=O)c4ccc(NCC5CCOCC5)c([N+](=O)[O-])c4)c(Oc4cnc5[nH]ccc5c4)c3)CC2)=C(c2ccc(Cl)cc2)C1 [Venetoclax] (first compound max 10 µM, 7x7, partner max 1 µM)
2. CC(=O)c1c(C)c2cnc(Nc3ccc(N4CCNCC4)cn3)nc2n(C2CCCC2)c1=O [Palbociclib] + Cn1cnc2c(F)c(Nc3ccc(Br)cc3Cl)c(C(=O)NOCCO)cc21 [Selumetinib] (first compound max 10 µM, 7x7, partner max 10 µM)
3. Cn1cnc2c(F)c(Nc3ccc(Br)cc3Cl)c(C(=O)NOCCO)cc21 [Selumetinib] + CCN(CCO)CCCOc1ccc2c(Nc3cc(CC(=O)Nc4cccc(F)c4)[nH]n3)ncnc2c1 [AZD2811] (first compound max 10 µM, 7x7, partner max 1 µM)
4. CCN(CCO)CCCOc1ccc2c(Nc3cc(CC(=O)Nc4cccc(F)c4)[nH]n3)ncnc2c1 [AZD2811] + C[C@@H]1COCCN1C2=NC(=NC(=C2)C3(CC3)[S@](=N)(=O)C)C4=C5C=CNC5=NC=C4 [AZD6738] (first compound max 1 µM, 7x7, partner max 10 µM)
5. Cc1c2c(nn1C)CSCc1cc(n(C)n1)CSc1cc(c3ccccc3c1)OCCCc1c(C(=O)O)n(C)c3c-2c(Cl)ccc13 [AZD5991] + C[C@@H](Nc1cc(F)cc(F)c1)c1cc(C(=O)N(C)C)cc2c(=O)cc(N3CCOCC3)oc12 [AZD8186] (first compound max 1 µM, 7x7, partner max 3 µM)

Outgoing:
-0.0349
0.0333
0.0702
-0.0298
-0.0352
